Experiment: Radioactivity distribution in mouse body after intravenous administration of radioiodine labeled forms
Conditions: mouse, intravenous administration, brain, 10 min after administration; mean (SD) of 3 to 5 mice
measured.property: Distribution of radioactivity, Brain

compound="CN(C)c1ccc(-c2cc(=O)c3cc([125I])ccc3o2)cc1 [[125I]Compound 11]" measured_property="Distribution of radioactivity, Brain" result="3.61 (0.60) % ID/g"
compound="CN(C)c1ccc(C=Cc2cc(=O)c3cc([125I])ccc3o2)cc1 [[125I]Compound 48]" measured_property="Distribution of radioactivity, Brain" result="0.72 (0.14) % ID/g"
compound="COc1cc(/C=C/C(=O)c2cccc([125I])c2)ccc1O [[125I]Compound 31]" measured_property="Distribution of radioactivity, Brain" result="1.28 (0.17) % ID/g"
compound="O=c1cc(-c2ccc(O)cc2)oc2ccc([125I])cc12 [[125I]Compound 20]" measured_property="Distribution of radioactivity, Brain" result="1.90 (0.07) % ID/g"
compound="CNc1ccc(-c2cc(=O)c3cc([125I])ccc3o2)cc1 [[125I]Compound 10]" measured_property="Distribution of radioactivity, Brain" result="3.68 (0.18) % ID/g"
compound="Nc1ccc(C=Cc2cc(=O)c3cc([125I])ccc3o2)cc1 [[125I]Compound 46]" measured_property="Distribution of radioactivity, Brain" result="4.40 (0.44) % ID/g"
compound="COc1ccc(-c2cc(=O)c3cc([125I])ccc3o2)cc1 [[125I]Compound 19]" measured_property="Distribution of radioactivity, Brain" result="2.36 (0.33) % ID/g"
compound="CNc1ccc(C=Cc2cc(=O)c3cc([125I])ccc3o2)cc1 [[125I]Compound 47]" measured_property="Distribution of radioactivity, Brain" result="2.96 (0.25) % ID/g"

###

Test: Radioactivity distribution in mouse body after intravenous administration of radioiodine labeled forms
Conditions: mouse, intravenous administration, spleen, 30 min after administration; mean (SD) of 3 to 5 mice
The following compounds are listed with their measured Distribution of radioactivity, Spleen values.
measured.property: Distribution of radioactivity, Spleen

compound="CNc1ccc(C=Cc2cc(=O)c3cc([125I])ccc3o2)cc1 [[125I]Compound 47]" measured_property="Distribution of radioactivity, Spleen" result="2.66 (0.47) % ID/g"
compound="CN(C)c1ccc(C=Cc2cc(=O)c3cc([125I])ccc3o2)cc1 [[125I]Compound 48]" measured_property="Distribution of radioactivity, Spleen" result="3.15 (0.70) % ID/g"
compound="COc1ccc(-c2cc(=O)c3cc([125I])ccc3o2)cc1 [[125I]Compound 19]" measured_property="Distribution of radioactivity, Spleen" result="0.55 (0.30) % ID/g"
compound="O=c1cc(-c2ccc(O)cc2)oc2ccc([125I])cc12 [[125I]Compound 20]" measured_property="Distribution of radioactivity, Spleen" result="0.56 (0.13) % ID/g"
compound="Nc1ccc(C=Cc2cc(=O)c3cc([125I])ccc3o2)cc1 [[125I]Compound 46]" measured_property="Distribution of radioactivity, Spleen" result="2.92 (0.73) % ID/g"

###

Assay: Radioactivity distribution in mouse body after intravenous administration of radioiodine labeled forms
Settings: mouse, intravenous administration, heart, 2 min after administration; mean (SD) of 3 to 5 mice
measured.property: Distribution of radioactivity, Heart

molecule="CN(C)c1ccc(C=Cc2cc(=O)c3cc([125I])ccc3o2)cc1 [[125I]Compound 48]" result="8.89 (1.94) % ID/g"
molecule="COc1cc(/C=C/C(=O)c2cccc([125I])c2)ccc1O [[125I]Compound 31]" result="5.58 (0.99) % ID/g"
molecule="COc1ccc(-c2cc(=O)c3cc([125I])ccc3o2)cc1 [[125I]Compound 19]" result="4.98 (0.41) % ID/g"
molecule="O=c1cc(-c2ccc(O)cc2)oc2ccc([125I])cc12 [[125I]Compound 20]" result="5.51 (0.71) % ID/g"
molecule="CN(C)c1ccc(-c2cc(=O)c3cc([125I])ccc3o2)cc1 [[125I]Compound 11]" result="5.63 (0.80) % ID/g"
molecule="Nc1ccc(C=Cc2cc(=O)c3cc([125I])ccc3o2)cc1 [[125I]Compound 46]" result="8.40 (0.47) % ID/g"
molecule="CNc1ccc(-c2cc(=O)c3cc([125I])ccc3o2)cc1 [[125I]Compound 10]" result="4.87 (0.66) % ID/g"
molecule="CNc1ccc(C=Cc2cc(=O)c3cc([125I])ccc3o2)cc1 [[125I]Compound 47]" result="6.92 (1.41) % ID/g"

###

The following molecules are listed with their measured Distribution of radioactivity, Kidney values.
Assay: Radioactivity distribution in mouse body after intravenous administration of radioiodine labeled forms
Settings: mouse, intravenous administration, kidney, 60 min after administration; mean (SD) of 3 to 5 mice
measured.property: Distribution of radioactivity, Kidney

molecule="CNc1ccc(-c2cc(=O)c3cc([125I])ccc3o2)cc1 [[125I]Compound 10]" measured_property="Distribution of radioactivity, Kidney" result="3.05 (0.25) % ID/g"
molecule="COc1cc(/C=C/C(=O)c2cccc([125I])c2)ccc1O [[125I]Compound 31]" measured_property="Distribution of radioactivity, Kidney" result="4.31 (0.81) % ID/g"
molecule="CN(C)c1ccc(C=Cc2cc(=O)c3cc([125I])ccc3o2)cc1 [[125I]Compound 48]" measured_property="Distribution of radioactivity, Kidney" result="3.94 (1.25) % ID/g"

###

Molecular target: Aβ(1-42) aggregates (Homo sapiens)
Construct: the amyloid β protein (Human, 1-42) [TFA form]; purchased Peptide Institute, Inc
Sequence (P05067 672-713 limits assumed): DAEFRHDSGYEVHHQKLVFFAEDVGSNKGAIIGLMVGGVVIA
Experiment: Inhibition experiment using [125I] compound 11 as radioactive ligand, Aβ(1-42) aggregates
Assay type: binding
Settings: radioligand [125I] compound 11; Cheng-Prusoff; read-out: Inhibition constant (Ki, nM) Aβ(1-42)
The following molecules are listed with their measured Ki values.
measured.property: Ki (nM)

smiles_repr=CN(C)c1ccc(-c2cc(=O)c3cc(I)ccc3o2)cc1 measured_property=Ki measured_number=15.6
smiles_repr=CNc1ccc(-c2cc(=O)c3cc(I)ccc3o2)cc1 measured_property=Ki measured_number=30
smiles_repr=COc1ccc(-c2cc(=O)c3cc(I)ccc3o2)cc1 measured_property=Ki measured_number=38.3

###

The following molecules are listed with their measured Distribution of radioactivity, Intestine values.
Test: Radioactivity distribution in mouse body after intravenous administration of radioiodine labeled forms
Conditions: mouse, intravenous administration, intestine, 30 min after administration; mean (SD) of 3 to 5 mice
measured.property: Distribution of radioactivity, Intestine

molecule="COc1ccc(-c2cc(=O)c3cc([125I])ccc3o2)cc1 [[125I]Compound 19]" measured_property="Distribution of radioactivity, Intestine" result="22.51 (1.11) % ID/g"
molecule="CN(C)c1ccc(C=Cc2cc(=O)c3cc([125I])ccc3o2)cc1 [[125I]Compound 48]" measured_property="Distribution of radioactivity, Intestine" result="11.98 (1.26) % ID/g"
molecule="CNc1ccc(-c2cc(=O)c3cc([125I])ccc3o2)cc1 [[125I]Compound 10]" measured_property="Distribution of radioactivity, Intestine" result="12.84 (1.18) % ID/g"
molecule="COc1cc(/C=C/C(=O)c2cccc([125I])c2)ccc1O [[125I]Compound 31]" measured_property="Distribution of radioactivity, Intestine" result="20.60 (6.13) % ID/g"
molecule="CNc1ccc(C=Cc2cc(=O)c3cc([125I])ccc3o2)cc1 [[125I]Compound 47]" measured_property="Distribution of radioactivity, Intestine" result="16.72 (2.58) % ID/g"
molecule="Nc1ccc(C=Cc2cc(=O)c3cc([125I])ccc3o2)cc1 [[125I]Compound 46]" measured_property="Distribution of radioactivity, Intestine" result="11.71 (1.27) % ID/g"
molecule="O=c1cc(-c2ccc(O)cc2)oc2ccc([125I])cc12 [[125I]Compound 20]" measured_property="Distribution of radioactivity, Intestine" result="22.01 (1.34) % ID/g"
molecule="CN(C)c1ccc(-c2cc(=O)c3cc([125I])ccc3o2)cc1 [[125I]Compound 11]" measured_property="Distribution of radioactivity, Intestine" result="12.97 (1.15) % ID/g"

###

Assay: Radioactivity distribution in mouse body after intravenous administration of radioiodine labeled forms
Conditions: mouse, intravenous administration, spleen, 2 min after administration; mean (SD) of 3 to 5 mice
The following compounds are listed with their measured Distribution of radioactivity, Spleen values.
measured.property: Distribution of radioactivity, Spleen

compound="O=c1cc(-c2ccc(O)cc2)oc2ccc([125I])cc12 [[125I]Compound 20]" measured_property="Distribution of radioactivity, Spleen" result="3.92 (1.18) % ID/g"
compound="COc1ccc(-c2cc(=O)c3cc([125I])ccc3o2)cc1 [[125I]Compound 19]" measured_property="Distribution of radioactivity, Spleen" result="2.70 (0.08) % ID/g"
compound="Nc1ccc(C=Cc2cc(=O)c3cc([125I])ccc3o2)cc1 [[125I]Compound 46]" measured_property="Distribution of radioactivity, Spleen" result="4.23 (0.62) % ID/g"
compound="CNc1ccc(C=Cc2cc(=O)c3cc([125I])ccc3o2)cc1 [[125I]Compound 47]" measured_property="Distribution of radioactivity, Spleen" result="3.88 (0.74) % ID/g"
compound="COc1cc(/C=C/C(=O)c2cccc([125I])c2)ccc1O [[125I]Compound 31]" measured_property="Distribution of radioactivity, Spleen" result="2.57 (0.42) % ID/g"
compound="CN(C)c1ccc(-c2cc(=O)c3cc([125I])ccc3o2)cc1 [[125I]Compound 11]" measured_property="Distribution of radioactivity, Spleen" result="2.72 (0.20) % ID/g"
compound="CN(C)c1ccc(C=Cc2cc(=O)c3cc([125I])ccc3o2)cc1 [[125I]Compound 48]" measured_property="Distribution of radioactivity, Spleen" result="5.09 (0.75) % ID/g"
compound="CNc1ccc(-c2cc(=O)c3cc([125I])ccc3o2)cc1 [[125I]Compound 10]" measured_property="Distribution of radioactivity, Spleen" result="2.57 (1.54) % ID/g"

Data provenance: patent US8192717B2
